Cited source for all entries: ChEMBL document CHEMBL3808334

Test: Growth inhibition of human HCT15 cells assessed as cell growth at 10^-8 M incubated for 48 hrs by sulforhodamine B assay
Format: functional
Details: HCT-15, 48 h, read-out: Activity
property: growth at 0.01 µM (%)
Give a bare numeral; the unit % is implied.

These recorded examples may help you get a feel for the data.
{"entry_smiles": "Clc1ccc(-c2nc(Nc3ccc(-c4nc5ccccc5[nH]4)cc3)nc(N3CCOCC3)n2)cc1", "property": "growth at 0.01 µM", "quantity_unit": "%", "reading": 96}
{"entry_smiles": "c1ccc2[nH]c(-c3ccc(Nc4nc(N5CCCCC5)nc(N5CCOCC5)n4)cc3)nc2c1", "property": "growth at 0.01 µM", "quantity_unit": "%", "reading": 95}

Item under review: Fc1ccc(-c2nc(Nc3ccc(-c4nc5ccccc5[nH]4)cc3)nc(N3CCOCC3)n2)cc1 . Reported growth at 0.01 µM?
97

Item under review: c1ccc(-c2nc(Nc3ccc(-c4nc5ccccc5[nH]4)cc3)nc(N3CCOCC3)n2)cc1 . Reported growth at 0.01 µM?
96

----------
In this section we review reported TGI values for a set of compounds.
Test: Growth inhibition of human OVCAR5 cells incubated for 48 hrs by sulforhodamine B assay
Assay type: functional
Details: OVCAR-5, 48 h, read-out: TGI
Give a bare numeral; the unit µM is implied.

These recorded examples may help you get a feel for the data.
{"entry_smiles": "c1ccc2[nH]c(-c3ccc(Nc4nc(N5CCCCC5)nc(N5CCOCC5)n4)cc3)nc2c1", "quantity_unit": "µM", "TGI": 29.3}
{"entry_smiles": "c1ccc(-c2nc(Nc3ccc(-c4nc5ccccc5[nH]4)cc3)nc(N3CCOCC3)n2)cc1", "quantity_unit": "µM", "TGI": 4.02}
{"entry_smiles": "Clc1ccc(-c2nc(Nc3ccc(-c4nc5ccccc5[nH]4)cc3)nc(N3CCOCC3)n2)cc1", "quantity_unit": "µM", "TGI": 1.94}

Item under review: Fc1ccc(-c2nc(Nc3ccc(-c4nc5ccccc5[nH]4)cc3)nc(N3CCOCC3)n2)cc1 . Reported TGI?
8.9

----------
Test: Growth inhibition of human HOP92 cells assessed as cell growth at 10^-6 M incubated for 48 hrs by sulforhodamine B assay
Format: functional
Settings: HOP-92, 48 h, read-out: Activity
In this section we review reported growth at 1 µM values for a set of compounds.
Give a bare numeral; the unit % is implied.

{"entry_smiles": "Clc1ccc(-c2nc(Nc3ccc(-c4nc5ccccc5[nH]4)cc3)nc(N3CCOCC3)n2)cc1", "quantity_unit": "%", "growth at 1 µM": 68}
{"entry_smiles": "c1ccc(-c2nc(Nc3ccc(-c4nc5ccccc5[nH]4)cc3)nc(N3CCOCC3)n2)cc1", "quantity_unit": "%", "growth at 1 µM": 70}
{"entry_smiles": "Fc1ccc(-c2nc(Nc3ccc(-c4nc5ccccc5[nH]4)cc3)nc(N3CCOCC3)n2)cc1", "quantity_unit": "%", "growth at 1 µM": 90}

Could you now consider this next compound?
Item under review: c1ccc2[nH]c(-c3ccc(Nc4nc(N5CCCCC5)nc(N5CCOCC5)n4)cc3)nc2c1 . Reported growth at 1 µM?
95

----------
In this section we review reported growth at 1 µM values for a set of compounds.
Assay: Growth inhibition of human PC3 cells assessed as cell growth at 10^-6 M incubated for 48 hrs by sulforhodamine B assay
Format: functional
Conditions: PC-3, 48 h, read-out: Activity
Give a bare numeral; the unit % is implied.

These recorded examples may help you get a feel for the data.
{"entry_smiles": "Clc1ccc(-c2nc(Nc3ccc(-c4nc5ccccc5[nH]4)cc3)nc(N3CCOCC3)n2)cc1", "growth at 1 µM / %": 13}
{"entry_smiles": "Fc1ccc(-c2nc(Nc3ccc(-c4nc5ccccc5[nH]4)cc3)nc(N3CCOCC3)n2)cc1", "growth at 1 µM / %": 93}
{"entry_smiles": "c1ccc2[nH]c(-c3ccc(Nc4nc(N5CCCCC5)nc(N5CCOCC5)n4)cc3)nc2c1", "growth at 1 µM / %": 101}

Could you now consider this next compound?
Item under review: c1ccc(-c2nc(Nc3ccc(-c4nc5ccccc5[nH]4)cc3)nc(N3CCOCC3)n2)cc1 . Reported growth at 1 µM?
92
